# Protocol Notes: yeast display, Sf9 membrane polyspecificity reagent, FACS + sequencing; frameworks hold sequencing errors
Readout Kind: polyreactivity (PSR sort gate)

In the examples that follow, each entry is paired with its recorded polyreactivity (PSR sort gate).
{"columns": ["Sequence String", "polyreactivity (PSR sort gate)"],
 "data": [
  ["QDQLVESGGGFVQAGGSLRLSCAASGFIFVTYAMGWFRQAPGKERELVAAITWSTTSTYYADSVKGRFTISRDNAKNTVYLQMNSLKPDETAVYSCAKYYFQYKHDYWGQGTQVTVSS", "low polyreactivity"],
  ["QVQLVESGGGLVQAGGSLRLSWAASGITFDLYAMGWYRPAPGKEREFVATISWTGGTTYYADSVKGRFTISRDNAKNTVDLQMISLKPEVPAASYCNKGSDFFWYDYDYCGQGTQVTVSS", "low polyreactivity"],
  ["QFQLVESGGGLVQARGRLRLSCAASGSIFSYNAMGWYRQAPGKERELVARISSSGSTNYADSVKGRFTISRDNAKNTVYIQMNSLKPEDTAVYYCNKDPYWPSWTRRRREYYYWGQGTQVTVSS", "high polyreactivity"],
  ["QVQLVESGGRLVQAGGSLRLSCAASGRIFNHYAMGWYRQAPGKERELVAAIDRSGGSTYYADSVKGRFTISRDNAKNTVYFQMNSLKPEDTAVYYCNARRIIAKYGYWGQGTQVTVSS", "high polyreactivity"],
  ["QVQLVESGGGLVQAGGSLRLSCAASGRIFYHYAMGWYRQAPGKERELVAAITSSGAGTYYADSVKGRFTISRDNAKNTVYLPMNSLKPEDTAVYYCAARRYAWLHSYDMYYWGHGTQVTVSS", "high polyreactivity"],
  ["QVQLVESGGGLVQAGGSLSLSCAASGRIFGRYAMGWYRQAPGTERVLVAVISSGGSKYYADSVKGRFTISRDNAKNTVYLQMNSLKPEDTAVYYCAAVNRRGYDYWGQGTQVTVSS", "low polyreactivity"],
  ["QVQLVESGGGLVQAGGSLRLSCAASGLTFRRNAMGWYRQAPGKERELVAVNSRSGGSTYYADSVKGRFTISRDNAKNTVYLQMNCLKPEDTAVYYCNKRTRRTYDYWGQGTQVTVSS", "high polyreactivity"],
  ["QVQLVESGGGLVQAGGSLRLSCAASGSTSVVNPMGWSRPAPGTERELVAAISWSGGSTYYADSVKGRFTISRDNAKNTVYLQMNSLKPEDTAVYYCAKRRVYYGSRYNYWGQGTQVTVSS", "high polyreactivity"]
]}

// polyreactivity (PSR sort gate) lookup, sequence = `QVQLVESGGGLVQAGGSLRLSCAASGSTVYYNAMGWYRQAPGKERELVADISWRGGITYYADSVKGRFTISRDNAKNTVYLQMNSLKPAETAVYYCNADAESFDDGYWGQGTQVTVSS` , result: low polyreactivity

// polyreactivity (PSR sort gate) lookup, sequence = `QVQLVESGGGLVQAGGSLRISCAASGRIFSEYAMGWYRQAPGKERELVATITWTGGSTTYADSVKGRFTISRDNAKNTVYLQINSLKPEDTAVYYCAADATRLRTRYKRDYWGQGTQVTVSS` , result: high polyreactivity

// polyreactivity (PSR sort gate) lookup, sequence = `QLQLVESGGGLVQAGGSLRLSCAASGSTFVYNAMGWYRQAPGKERELVAAISTGGSTYYADSVKGRFTISRDNAKNTVYLQMNSLKPEDTAVYYCAAGYSWGYSSQKLRYGYWGQGTQVTVSS` , result: high polyreactivity
